The reported measurements were obtained from paper doi:10.1101/2024.08.23.608890.

- STUDY_SYSTEM: T1, Paeniclostridium sordellii lethal toxin TcsL, receptor binding domain (RBD) (Paeniclostridium sordellii, UniProt Q46342)
- T1 sequence: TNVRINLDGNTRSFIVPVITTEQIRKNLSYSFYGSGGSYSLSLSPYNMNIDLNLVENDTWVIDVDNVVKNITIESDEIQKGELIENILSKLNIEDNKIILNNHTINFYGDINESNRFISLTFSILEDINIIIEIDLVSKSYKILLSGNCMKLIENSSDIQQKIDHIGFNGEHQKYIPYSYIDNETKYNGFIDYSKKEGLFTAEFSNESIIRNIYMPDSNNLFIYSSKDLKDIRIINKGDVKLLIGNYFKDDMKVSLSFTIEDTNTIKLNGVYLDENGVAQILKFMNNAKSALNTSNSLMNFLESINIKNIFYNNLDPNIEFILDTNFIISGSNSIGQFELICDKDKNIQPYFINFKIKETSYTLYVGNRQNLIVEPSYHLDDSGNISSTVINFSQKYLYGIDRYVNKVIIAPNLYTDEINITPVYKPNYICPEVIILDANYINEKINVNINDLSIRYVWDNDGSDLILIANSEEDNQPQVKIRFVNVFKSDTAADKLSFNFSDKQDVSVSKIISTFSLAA
- PROCEDURE_TEXT: SPR
pKd: −log10 of the molar value.
PROPERTY: pKd

- BINDER: "B4, ProteinMPNN-optimized de novo designed TcsL-binding miniprotein (designed binder) MSGTEEIIKEIKKMKEKGEKASSIIDLLKKAGYSEIAKKAELAALKSENMTEAAAEKAIEELK"
  VALUE_OBSERVED: 10.24
